Recorded values, source patent US7923041B2.

# system: PPME (Homo sapiens, UniProt Q9Y570)
# Construct: made in house; host or cells: E. coli BL21(DE3)
# Sequence (Q9Y570 1-386): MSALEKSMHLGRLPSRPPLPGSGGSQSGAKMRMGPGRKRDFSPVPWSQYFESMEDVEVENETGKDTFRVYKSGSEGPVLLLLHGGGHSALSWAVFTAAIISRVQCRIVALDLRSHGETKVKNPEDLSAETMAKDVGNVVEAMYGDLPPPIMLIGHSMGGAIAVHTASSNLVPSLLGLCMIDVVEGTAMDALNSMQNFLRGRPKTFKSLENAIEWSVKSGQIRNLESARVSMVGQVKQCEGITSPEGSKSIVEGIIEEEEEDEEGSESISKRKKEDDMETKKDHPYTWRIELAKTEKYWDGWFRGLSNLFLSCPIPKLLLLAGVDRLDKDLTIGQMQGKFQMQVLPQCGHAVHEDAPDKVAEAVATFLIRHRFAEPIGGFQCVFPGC
# test.details: PP2A methylesterase (PPME) inhibition, filter paper method
# Format: biochemical
# measurement.setup: PPME at 85 nM; read-out: IC50
Please respond with reported pIC50 for every item in the list.
Would you please state pIC50, meaning minus log10 of the concentration in mol/L, as a bare number?

The measured pIC50 associated with COc1cc(/C=C/C(=O)CC(=O)/C=C/c2ccc(O)c(OC)c2)ccc1O [CCM-L, Curcumin] reads 3.11

The measured pIC50 associated with Cc1c(C)c2c(c(C)c1O)CCC(C)(CCCC(C)CCCC(C)CCCC(C)C)O2 (racemic) [#12-1, DL-α-tocopherol] reads 4.46

* * *

# system: PPME (Homo sapiens, UniProt Q9Y570)
# Construct: made in house; host or cells: E. coli BL21(DE3)
# test.details: PP2A methylesterase (PPME) inhibition, filter paper method
# Type: biochemical
# measurement.setup: read-out: concentration required for 50% inhibition of PPME
pIC50: −log10 of the molar value.
assay.readout: pIC50

The measured pIC50 associated with Cn1c(=O)c2c(ncn2C)n(C)c1=O reads < 3.36
